Molecular target: B. fragilis CfiA metallo-β-lactamase (Bacteroides fragilis)
Sequence (P25910 19-249): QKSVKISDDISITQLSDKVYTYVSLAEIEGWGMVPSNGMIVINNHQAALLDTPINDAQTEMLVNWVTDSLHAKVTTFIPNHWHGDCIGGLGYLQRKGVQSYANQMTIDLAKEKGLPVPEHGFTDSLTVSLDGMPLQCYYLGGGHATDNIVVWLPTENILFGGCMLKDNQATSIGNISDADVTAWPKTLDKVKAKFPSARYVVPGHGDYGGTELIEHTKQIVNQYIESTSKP
Assay: I50 screen, nitrocefin reporter substrate
Type: biochemical
Conditions: 25 mM PIPES pH 7, 37° C., nitrocefin 91 μM, 5 minute preincubation, Zn^2+ 100 μM; read-out: I50 values against B. fragilis CfiA metallo-β-lactamase
pIC50: −log10 of the molar value.
VALUE TYPE: pIC50

O=C(O)[C@H]1CSCN1C(=O)C(CS)Cc1ccccc1 (stereo partly shown) [Example 18]: > 3.30
CC(CS)C(=O)N1CSC(C)(C)C1C(=O)O (stereo not shown): > 3.30
O=C(O)[C@@H]1CCCN1C(=O)C(CS)Cc1ccccc1 (stereo partly shown): > 3.30
O=C(O)[C@H]1CSCN1C(=O)C(CS)Cc1ccccc1 (single isomer, unassigned) [Example 30]: > 3.30
CC1(C)SCN(C(=O)CCS)[C@H]1C(=O)O: > 3.30
CC1(C)SCN(C(=O)C(CS)Cc2ccccc2)[C@@H]1C(=O)O (stereo partly shown): > 3.30
CC(CS)C(=O)N1CSC(C)(C)[C@@H]1C(=O)O (stereo partly shown): > 3.30
CC1(C)[C@H](C(=O)O)N(C(=O)[C@@H](CS)Cc2ccccc2)C[S+]1[O-] (single isomer, unassigned): > 6.00
O=C(O)[C@H]1CSCN1C(=O)C(CS)CCCc1ccccc1 (stereo partly shown): > 3.30
CC1(C)SCN(C(=O)[C@@H](CS)Cc2ccccc2)[C@@H]1C(=O)O: > 3.30
CC1(C)SCN(C(=O)[C@@H](CS)Cc2ccccc2)[C@H]1C(=O)O: > 6.00
CC1(C)SCN(C(=O)[C@H](CS)Cc2ccccc2)[C@@H]1C(=O)O: > 3.30
O=C(O)[C@H]1CSCN1C(=O)C(CS)Cc1ccccc1 (single isomer, unassigned) [Example 31]: > 3.30
CC1(C)SCN(C(=O)C(CS)CCc2ccccc2)[C@H]1C(=O)O (stereo partly shown): > 3.30
O=C(O)[C@H]1CCCN1C(=O)C(CS)Cc1ccccc1 (stereo partly shown): > 3.30
CC1(C)SCN(C(=O)C(CS)Cc2ccccc2)[C@H]1C(=O)O (stereo partly shown): > 6.00

The reported measurements were obtained from patent US6022885A.
